These entries and their values trace back to patent US20130023553A1.

Test: Pharmacokinetics following oral (PO) dosing
Type: in vivo, Sprague-Dawley rats
Conditions: male, Sprague-Dawley, rat, plasma; hydroxycodone series, 5.0 mg/kg oral, Mean ± SD; * n = 2
reported metric: log10(AUC(0-inf)) (log10 of the value in ng·h/mL)

{"columns": ["compound", "log10(AUC(0-inf))"],
 "data": [
  ["COCCOC1CCC2(O)C3Cc4ccc(OC)c5c4C2(CCN3C)C1O5 (stereo not drawn) [α-6-mPEG1-O-hydroxycodone, α-6-mPEG1-O-oxycodone]", 1.28],
  ["COCCOCCOC1CCC2(O)C3Cc4ccc(OC)c5c4C2(CCN3C)C1O5 (stereo not drawn) [α-6-mPEG2-O-hydroxycodone, α-6-mPEG2-O-oxycodone]", 1.99],
  ["COCCOCCOCCOCCOCCOCCOC1CCC2(O)C3Cc4ccc(OC)c5c4C2(CCN3C)C1O5 (stereo not drawn) [α-6-mPEG6-O-hydroxycodone, α-6-mPEG6-O-oxycodone]", 2.78],
  ["COCCOCCOCCOCCOC1CCC2(O)C3Cc4ccc(OC)c5c4C2(CCN3C)C1O5 (stereo not drawn) [α-6-mPEG4-O-hydroxycodone, α-6-mPEG4-O-oxycodone]", 1.94],
  ["COCCOCCOCCOCCOCCOCCOCCOC1CCC2(O)C3Cc4ccc(OC)c5c4C2(CCN3C)C1O5 (stereo not drawn) [α-6-mPEG7-O-hydroxycodone, α-6-mPEG7-O-oxycodone]", 2.57]
]}
